tested system: T1, VEGFR-1-Fc (UniProt P17948 27-338)
T1 construct: domain: first three Ig domains; expressed in Drosophila S2 cells, purified on Protein A sepharose; also called VEGFR-1-Fc fusion protein; not shown: Fc fragment from the Signal-pIgPlus vector
T1 sequence (P17948 27-338): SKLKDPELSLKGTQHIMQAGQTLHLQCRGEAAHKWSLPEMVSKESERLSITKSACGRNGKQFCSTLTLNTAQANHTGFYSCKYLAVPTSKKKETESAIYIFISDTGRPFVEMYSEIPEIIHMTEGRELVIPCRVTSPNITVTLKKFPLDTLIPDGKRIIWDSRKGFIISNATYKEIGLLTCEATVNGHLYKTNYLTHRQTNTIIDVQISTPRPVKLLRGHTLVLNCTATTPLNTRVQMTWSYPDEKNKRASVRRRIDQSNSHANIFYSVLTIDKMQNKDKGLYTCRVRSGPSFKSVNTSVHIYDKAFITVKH
assay protocol: receptor-Fc IP
property: binding result

74-8 (ligand) GQNHHEVVKSIDNEWRKTQCMPREVCIDVGKEFGVATNTFFKPSCVPLMRCGGCCNSEGLQCMNTSTSYLSKTLFEIKPHQGQHIGEMSFANHTSCRCMSKLD ... no binding
72-5 (ligand) GQNHHEVVKSIDNEWRKTQCMPREVCIDVGKEFGVATNTFFKPPCVSVYRCGGCCNDEGLECVPTEESNITMQIMRIKPHQGQHIGEMSFANHTSCRCMSKLD ... no binding
